- system.name: T1, 4H918-bA
- T1 chain: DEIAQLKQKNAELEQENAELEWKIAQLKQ
- measurement.protocol: two-hybrid library CCNG1;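 further: natural log of median RNA to DNA barcode read ratio; higher means stronger binding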
readout.kind: interaction score

(I) DENAQLEQKIAELEQKIAELKWKNAQLKQ [4H1328-bA]
(II) DKNAQLEQEIAELKQKNAELEWEIAQLEQ [4H3185-bA]
**Query** Could you tell me which of these two has the smaller interaction score figure? First: I Second: II # reply format: chosen label
**Result** II

(1) DEIAQLKQEIAELEQKNAELEWKNAQLKQ [4H568-bA]
(2) DKIAQLKQENAELEQEIAELKWEIAQLEQ [4H2697-bA]
**Query** Endpoint returns whichever of 1 and 2 has the numerically higher interaction score. # reply format: chosen label
**Result** 1
